Target: E3 (CUL4) (Homo sapiens (Human))
Sequence (Q13619 whole entry): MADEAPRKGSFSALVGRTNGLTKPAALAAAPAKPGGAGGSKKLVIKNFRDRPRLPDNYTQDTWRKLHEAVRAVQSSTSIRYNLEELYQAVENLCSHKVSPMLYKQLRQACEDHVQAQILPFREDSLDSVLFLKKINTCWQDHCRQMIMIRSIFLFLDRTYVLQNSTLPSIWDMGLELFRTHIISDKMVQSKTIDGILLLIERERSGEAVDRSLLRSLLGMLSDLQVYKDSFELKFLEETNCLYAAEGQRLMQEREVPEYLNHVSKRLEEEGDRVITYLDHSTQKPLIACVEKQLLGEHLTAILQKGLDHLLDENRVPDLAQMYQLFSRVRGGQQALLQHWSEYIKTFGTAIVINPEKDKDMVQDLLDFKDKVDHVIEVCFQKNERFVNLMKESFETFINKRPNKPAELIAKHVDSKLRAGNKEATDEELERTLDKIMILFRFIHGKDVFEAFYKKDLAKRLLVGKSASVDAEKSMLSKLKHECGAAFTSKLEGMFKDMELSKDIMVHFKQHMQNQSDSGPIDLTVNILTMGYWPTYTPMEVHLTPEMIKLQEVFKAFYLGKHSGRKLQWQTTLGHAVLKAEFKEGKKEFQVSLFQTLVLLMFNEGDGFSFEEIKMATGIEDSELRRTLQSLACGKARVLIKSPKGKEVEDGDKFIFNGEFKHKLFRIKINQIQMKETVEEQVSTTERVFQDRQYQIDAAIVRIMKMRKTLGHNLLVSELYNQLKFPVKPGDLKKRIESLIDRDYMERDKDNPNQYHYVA
Sequence (P62877 whole entry partner): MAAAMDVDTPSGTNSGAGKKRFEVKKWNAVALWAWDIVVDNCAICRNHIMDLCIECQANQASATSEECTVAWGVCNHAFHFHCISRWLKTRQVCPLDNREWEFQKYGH
Test: E3 (CUL4) inhibition (Table 1)
parameterMeasured: EC50

Reference set, count: 5
CC(=O)Oc1ccc2c(=O)cc(C(F)(F)F)oc2c1OC(C)=O :: > 75 µM
O=c1c(-c2cnn(-c3ccc(Cl)c(Cl)c3)c2)c(C(F)(F)F)oc2c(O)c(O)ccc12 :: ~10 µM
CCn1cc(-c2c(C(F)(F)F)oc3c(O)c(O)ccc3c2=O)cn1 :: > 10 µM
O=c1c(-c2cnn(Cc3cc(C(F)(F)F)ccc3Cl)c2)c(C(F)(F)F)oc2c(O)c(O)ccc12 :: > 10 µM
O=c1c(-c2cnn(-c3ccc(Cl)cc3)c2)c(C(F)(F)F)oc2c(O)c(O)ccc12 :: 10 µM

**Q:** Respond only with EC50 recorded for CCCCn1cc(-c2c(C(F)(F)F)oc3c(O)c(O)ccc3c2=O)cn1
**A:** > 10 µM

**Q:** Respond only with EC50 recorded for O=c1c(-c2cnn(-c3ccccc3Cl)c2)c(C(F)(F)F)oc2c(O)c(O)ccc12
**A:** > 14 µM

**Q:** Respond only with EC50 recorded for O=c1c(-c2cnn(-c3cccc(Cl)c3)c2)c(C(F)(F)F)oc2c(O)c(O)ccc12
**A:** ~14 µM

**Q:** Respond only with EC50 recorded for O=c1c(-c2cnn(-c3cccc(C(F)(F)F)c3)c2)c(C(F)(F)F)oc2c(O)c(O)ccc12
**A:** > 14 µM

**Q:** Respond only with EC50 recorded for COc1ccc2c(=O)c(-c3cnn(Cc4cccc(Cl)c4)c3)c(C(F)(F)F)oc2c1OC
**A:** > 10 µM

**Q:** Respond only with EC50 recorded for O=c1c(-c2cnn(-c3ccccc3)n2)c(C(F)(F)F)oc2c(O)c(O)ccc12
**A:** > 14 µM

Where do the numbers come from? From patent US20240174649A1.
